Data credit: patent US7655679B2

target: human PPARdelta (Homo sapiens); construct: amino acids S139-Y441; plasmid pcDNA3; test: Cellular PPARdelta assay (luciferase reporter, stably transfected HEK cell line); details: GR-GAL4-humanPPARdelta-LBD
Sequence (Q03181 139-441): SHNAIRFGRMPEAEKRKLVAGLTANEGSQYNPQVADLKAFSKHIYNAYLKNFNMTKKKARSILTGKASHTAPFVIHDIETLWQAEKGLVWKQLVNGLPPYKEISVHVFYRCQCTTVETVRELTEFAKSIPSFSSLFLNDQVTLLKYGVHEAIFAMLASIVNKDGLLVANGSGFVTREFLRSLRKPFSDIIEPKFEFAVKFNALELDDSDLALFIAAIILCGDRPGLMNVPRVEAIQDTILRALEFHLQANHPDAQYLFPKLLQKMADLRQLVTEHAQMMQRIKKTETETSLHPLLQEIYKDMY

# COMPOUND, EC50
data = [
    ("COCCCN(Cc1ccc(-c2noc(=O)[nH]2)c(F)c1)c1nc(-c2ccc(Cl)cc2)cs1 [Example 39]", "200 nM"),
    ("Cc1cc(CCN(CC2CCOCC2)c2nc3ccc(C(F)(F)F)cc3s2)ccc1-c1noc(=O)[nH]1 [Example 9]", "20 nM"),
    ("COCCN(Cc1ccc(-c2noc(=O)[nH]2)c(F)c1)c1nc2ccc(C(F)(F)F)cc2s1 [Example 28]", "60 nM"),
]
